# System: BEN
# measurement.protocol: relative viability (nuclei count vs DMSO), 5 days (fraction); higher = more cells survive
# experimental.setup: first compound 0.2 µM
test.readout: relative viability

| compound | target.desc | val |
| --- | --- | --- |
| COCC1(CO)C(=O)C2CCN1CC2 (configuration not stated) [PRIMA-1MET] + CC1(C)CCC(c2ccc(Cl)cc2)=C(CN2CCN(c3ccc(C(=O)NS(=O)(=O)c4ccc(N[C@H](CCN5CCOCC5)CSc5ccccc5)c(S(=O)(=O)C(F)(F)F)c4)cc3)CC2)C1 [Navitoclax] (partner 0.5 µM) | BEN | 0.0631 |
| COCC1(CO)C(=O)C2CCN1CC2 (configuration not stated) [PRIMA-1MET] + Nc1nc2[nH]cc(CCc3ccc(C(=O)N[C@@H](CCC(=O)O)C(=O)O)cc3)c2c(=O)[nH]1 [Pemetrexed] (partner 0.2 µM) | BEN | 0.898 |

---

# Tested on: NCI-H3122
# measurement.protocol: relative viability (nuclei count vs DMSO), 5 days (fraction); higher = more cells survive
# experimental.setup: first compound 8 µM
# Lookup of reported relative viability keyed by entry

| compound | relative viability |
| --- | --- |
| O=c1cc(-c2cccc3c2Sc2ccccc2S3)oc(N2CCOCC2)c1 + CC(=O)c1c(C)c2cnc(Nc3ccc(N4CCNCC4)cn3)nc2n(C2CCCC2)c1=O [Palbociclib] (partner 0.5 µM) | 0.192 |
| O=c1cc(-c2cccc3c2Sc2ccccc2S3)oc(N2CCOCC2)c1 + CS(=O)(=O)N1CCN(Cc2cc3nc(-c4cccc5[nH]ncc45)nc(N4CCOCC4)c3s2)CC1 [Pictilisib] (partner 1 µM) | 0.568 |
| O=c1cc(-c2cccc3c2Sc2ccccc2S3)oc(N2CCOCC2)c1 + Cc1cc(Nc2cc(N3CCN(C)CC3)nc(Sc3ccc(NC(=O)C4CC4)cc3)n2)n[nH]1 [Tozasertib] (partner 0.1 µM) | 0.479 |
| O=c1cc(-c2cccc3c2Sc2ccccc2S3)oc(N2CCOCC2)c1 + NC(=O)Nc1cc(-c2cccc(F)c2)sc1C(=O)N[C@H]1CCCNC1 [AZD7762] (partner 0.2 µM) | 1.04 |
| O=c1cc(-c2cccc3c2Sc2ccccc2S3)oc(N2CCOCC2)c1 + CC1(C)CCC(c2ccc(Cl)cc2)=C(CN2CCN(c3ccc(C(=O)NS(=O)(=O)c4ccc(N[C@H](CCN5CCOCC5)CSc5ccccc5)c(S(=O)(=O)C(F)(F)F)c4)cc3)CC2)C1 [Navitoclax] (partner 0.5 µM) | 1.03 |
| O=c1cc(-c2cccc3c2Sc2ccccc2S3)oc(N2CCOCC2)c1 + CC(=O)Nc1cccc(-n2c(=O)n(C3CC3)c(=O)c3c(Nc4ccc(I)cc4F)n(C)c(=O)c(C)c32)c1 [Trametinib] (partner 0.02 µM) | 0.292 |
| O=c1cc(-c2cccc3c2Sc2ccccc2S3)oc(N2CCOCC2)c1 + O=C(c1cc(Cc2n[nH]c(=O)c3ccccc23)ccc1F)N1CCN(C(=O)C2CC2)CC1 [Olaparib] (partner 8 µM) | 0.63 |
| O=c1cc(-c2cccc3c2Sc2ccccc2S3)oc(N2CCOCC2)c1 + C[C@@H](Oc1cc(-c2cnn(C3CCNCC3)c2)cnc1N)c1c(Cl)ccc(F)c1Cl [Crizotinib] (partner 1 µM) | 0.323 |
